biological target: isolated recombinant JAK1 kinase domain (Homo sapiens (Human)); assay: JAK1 enzyme assay (Caliper LabChip, Ki); type: biochemical; details: read-out: JAK1 Ki
Entries annotated with measured Ki
METRIC_NAME: Ki

# MOLECULE, METRIC_NAME, ASSAY_VALUE
measured = [
    ("N#CCC1(n2cc(C(N)=O)c(NC(=O)C3CC3)n2)CCC(Nc2ccccc2)CC1 (stereo not drawn) [Example 282]", "Ki", "0.62 nM"),
    ("CCc1cccc(-c2ccc(CN3CCC(CC#N)(n4cc(C(N)=O)c(NC(=O)C5CC5)n4)CC3)cc2)c1 [Example 154]", "Ki", "1.5 nM"),
    ("C=C(C)c1ccc(CN2CCC(CC#N)(n3cc(C(N)=O)c(NC(=O)C4CC4)n3)C(F)C2)cc1 (stereo not drawn) [Example 259]", "Ki", "0.84 nM"),
]

====

target: isolated recombinant JAK1 kinase domain (Homo sapiens (Human), UniProt P23458); assay: JAK1 enzyme assay (Caliper LabChip, Ki); format: biochemical; settings: read-out: JAK1 Ki
Sequence (P23458 875-1153): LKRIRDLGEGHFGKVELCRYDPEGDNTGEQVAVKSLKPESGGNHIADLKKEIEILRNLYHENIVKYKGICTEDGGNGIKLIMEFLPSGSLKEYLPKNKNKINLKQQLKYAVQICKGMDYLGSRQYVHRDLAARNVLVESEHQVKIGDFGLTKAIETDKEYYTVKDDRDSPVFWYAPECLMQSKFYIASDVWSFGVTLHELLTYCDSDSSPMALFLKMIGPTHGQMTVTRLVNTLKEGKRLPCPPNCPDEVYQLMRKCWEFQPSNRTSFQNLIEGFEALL
METRIC_NAME: Ki (nM)

# MOLECULE, ASSAYED_TARGET, ASSAY_VALUE
records = [
    ("COC1(C(F)(F)F)CN([C@H]2CC[C@@](CC#N)(n3cc(C(N)=O)c(NC(=O)C4CC4)n3)CC2)C1 [Example 131]", "isolated recombinant JAK1 kinase domain (Homo sapiens (Human), UniProt P23458)", 2.8),
    ("N#CCC1(n2cc(C(N)=O)c(NC(=O)C3CC3)n2)CCN(Cc2cccc(Br)c2)CC1 [Example 51]", "isolated recombinant JAK1 kinase domain (Homo sapiens (Human), UniProt P23458)", 6.5),
    ("N#CCC1(n2cc(C(N)=O)c(NC(=O)C3CC3)n2)CCN(Cc2ccc(-n3nccn3)cc2)CC1F (centres unmarked) [Example 199]", "isolated recombinant JAK1 kinase domain (Homo sapiens (Human), UniProt P23458)", 0.52),
    ("CCOC(=O)Nc1nn(C2(CC#N)CCN(Cc3ccc(-c4ccccc4)c(O)c3)CC2)cc1C(N)=O [Example 187]", "isolated recombinant JAK1 kinase domain (Homo sapiens (Human), UniProt P23458)", 0.52),
    ("N#CCC1(n2cc(C(N)=O)c(NC(=O)C3CC3)n2)CCN(CC(F)(F)F)CC1 [Example 23]", "isolated recombinant JAK1 kinase domain (Homo sapiens (Human), UniProt P23458)", 4.5),
    ("N#CCC1(n2cc(C(N)=O)c(NC(=O)C3CC3)n2)CCN(Cc2ccc(-n3nccn3)c(O)c2)CC1F (centres unmarked) [Example 286]", "isolated recombinant JAK1 kinase domain (Homo sapiens (Human), UniProt P23458)", 0.43),
    ("CC(C)OC1(C(F)(F)F)CN([C@H]2CC[C@@](CC#N)(n3cc(C(N)=O)c(NC(=O)C4CC4)n3)CC2)C1 [Example 135]", "isolated recombinant JAK1 kinase domain (Homo sapiens (Human), UniProt P23458)", 2.4),
    ("COC(=O)Nc1nn(C2(CC#N)CCN(Cc3ccc(-n4nccn4)cc3)CC2)cc1C(N)=O [Example 197]", "isolated recombinant JAK1 kinase domain (Homo sapiens (Human), UniProt P23458)", 1.2),
    ("CC(c1ccccc1)N1CCC(CC#N)(n2cc(C(N)=O)c(NC(=O)C3CC3)n2)CC1 (centres unmarked) [Example 22]", "isolated recombinant JAK1 kinase domain (Homo sapiens (Human), UniProt P23458)", 37.4),
    ("N#CCC1(n2cc(C(N)=O)c(NC(=O)C3CC3)n2)CCN(Cc2ccccc2)CC1 [Example 40]", "isolated recombinant JAK1 kinase domain (Homo sapiens (Human), UniProt P23458)", 7.9),
    ("COC(=O)Nc1nn(C2(CC#N)CCN(Cc3cc(O)c(-c4ccccc4)cc3F)CC2)cc1C(N)=O [Example 206]", "isolated recombinant JAK1 kinase domain (Homo sapiens (Human), UniProt P23458)", 0.18),
    ("N#CCC1(n2cc(C(N)=O)c(NC(=O)C3CC3)n2)CCN(Cc2ccc(-c3csc(Cl)c3)cc2)CC1 [Example 149]", "isolated recombinant JAK1 kinase domain (Homo sapiens (Human), UniProt P23458)", 0.7),
    ("N#CCC1(n2cc(C(N)=O)c(NC(=O)C3CC3)n2)CCN(Cc2ccc(-c3ccccc3)c(C#N)c2)CC1 [Example 161]", "isolated recombinant JAK1 kinase domain (Homo sapiens (Human), UniProt P23458)", 5.5),
    ("CC(=O)Nc1cccc(CN2CCC(CC#N)(n3cc(C(N)=O)c(NC(=O)C4CC4)n3)CC2)c1 [Example 76]", "isolated recombinant JAK1 kinase domain (Homo sapiens (Human), UniProt P23458)", 3.9),
    ("CCc1ccc(-c2ccc(CN3CCC(CC#N)(n4cc(C(N)=O)c(NC(=O)C5CC5C#N)n4)C(F)C3)cc2O)cc1 (centres unmarked) [Example 221]", "isolated recombinant JAK1 kinase domain (Homo sapiens (Human), UniProt P23458)", 0.3),
    ("N#CCC1(n2cc(C(N)=O)c(NC(=O)C3CC3)n2)CCN(Cc2ccc3nc[nH]c3c2)CC1 [Example 73]", "isolated recombinant JAK1 kinase domain (Homo sapiens (Human), UniProt P23458)", 57.3),
    ("CS(=O)(=O)Nc1ccccc1CN1CCC(CC#N)(n2cc(C(N)=O)c(NC(=O)C3CC3)n2)CC1 [Example 44]", "isolated recombinant JAK1 kinase domain (Homo sapiens (Human), UniProt P23458)", 27.6),
    ("N#CCC1(n2cc(C(N)=O)c(NC(=O)C3CC3)n2)CCC(Nc2ccccc2Cl)CC1 (centres unmarked) [Example 290]", "isolated recombinant JAK1 kinase domain (Homo sapiens (Human), UniProt P23458)", 1.1),
    ("COC(=O)Nc1nn(C2(CC#N)CCN(Cc3ccc(-c4ccccc4)c(O)c3F)CC2F)cc1C(N)=O (centres unmarked) [Example 263]", "isolated recombinant JAK1 kinase domain (Homo sapiens (Human), UniProt P23458)", 0.3),
    ("CS(=O)(=O)Nc1cccc(CN2CCC(CC#N)(n3cc(C(N)=O)c(NC(=O)C4CC4)n3)CC2)c1 [Example 45]", "isolated recombinant JAK1 kinase domain (Homo sapiens (Human), UniProt P23458)", 1.9),
    ("N#CCC1(n2cc(C(N)=O)c(NC(=O)C3CC3)n2)CCN(Cc2ccc(-c3cccc(CO)c3)cc2)CC1 [Example 156]", "isolated recombinant JAK1 kinase domain (Homo sapiens (Human), UniProt P23458)", 0.6),
    ("N#CCC1(n2cc(C(N)=O)c(NC(=O)C3CC3)n2)CCN(Cc2ccc(C3=CCCC3)cc2)CC1F (centres unmarked) [Example 261]", "isolated recombinant JAK1 kinase domain (Homo sapiens (Human), UniProt P23458)", 0.56),
    ("N#CCC1(n2cc(C(N)=O)c(NC(=O)C3CC3)n2)CCN(Cc2ccc(-n3nccn3)cc2)CC1 [Example 89]", "isolated recombinant JAK1 kinase domain (Homo sapiens (Human), UniProt P23458)", 0.7),
]

====

molecular target: isolated recombinant JAK1 kinase domain (Homo sapiens (Human)); test: JAK1 enzyme assay (Caliper LabChip, Ki); type: biochemical; settings: read-out: JAK1 Ki
pKi: −log10 of the molar value.
Returns one of yes or no; yes when pKi is >= 9.

# COMPOUND, LABEL_CLASS
measured = [
    ("COC(=O)Nc1nn(C2(CC#N)CCN(Cc3ccc(-n4nccn4)cc3)CC2F)cc1C(N)=O (stereo not shown) [Example 200]", "yes"),
    ("N#CC[C@@]1(n2cc(C(N)=O)c(NC(=O)C3CC3)n2)CCN(Cc2ccc(-c3ccccc3)cc2)C[C@H]1F (single isomer, unassigned) [Example 15]", "no"),
    ("COC(=O)Nc1nn(C2(CC#N)CCN(Cc3ccc(-c4ccc(C)o4)c(O)c3)CC2F)cc1C(N)=O (stereo not shown) [Example 247]", "yes"),
    ("N#CCC1(n2cc(C(N)=O)c(NC(=O)C3CC3)n2)CCN(Cc2cccc(Cl)c2)CC1 [Example 59]", "no"),
    ("N#CCC1(n2cc(C(N)=O)c(NC(=O)C3CC3C#N)n2)CCN(Cc2ccc(-c3ccccc3)cc2)CC1F (stereo not shown) [Example 192]", "yes"),
    ("COC(=O)Nc1nn(C2(CC#N)CCN(Cc3c(F)cc(-c4ccccc4)c(O)c3F)CC2F)cc1C(N)=O (stereo not shown) [Example 248]", "yes"),
]

====

target: isolated recombinant JAK2 kinase domain (Homo sapiens (Human), UniProt O60674); experiment: JAK2 enzyme assay (Caliper LabChip, Ki)
Sequence (O60674 849-1124): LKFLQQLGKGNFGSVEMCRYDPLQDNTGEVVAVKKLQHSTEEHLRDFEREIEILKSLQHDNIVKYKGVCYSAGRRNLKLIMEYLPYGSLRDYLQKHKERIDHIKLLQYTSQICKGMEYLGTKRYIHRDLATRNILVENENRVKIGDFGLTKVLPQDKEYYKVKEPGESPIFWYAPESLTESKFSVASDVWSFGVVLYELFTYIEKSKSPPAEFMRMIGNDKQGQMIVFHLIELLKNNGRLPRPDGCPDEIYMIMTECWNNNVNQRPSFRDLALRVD
So basically: is Ki under 4 nM? Then yes (1). Not under? Then no (0).

# COMPOUND, LABEL_CLASS
measured = [
    ("C#Cc1ccc(OC2(C)CN(C3CCC(CC#N)(n4cc(C(N)=O)c(NC(=O)C5CC5)n4)CC3)C2)cc1 (stereo not drawn)", "yes (1)"),
    ("COC(=O)Nc1nn(C2(CC#N)CCN(Cc3cc(O)cc(F)c3)CC2F)cc1C(N)=O (stereo not drawn)", "yes (1)"),
    ("Cc1c(CN2CCC(CC#N)(n3cc(C(N)=O)c(NC(=O)C4CC4)n3)C(F)C2)ccc(-c2ccccc2)c1O (stereo not drawn)", "yes (1)"),
    ("N#CC[C@]1(n2cc(C(N)=O)c(NC(=O)C3CC3)n2)CC[C@H](N2CC(F)(F)C2)CC1", "no (0)"),
    ("N#CCC1(n2cc(C(N)=O)c(NC(=O)C3CC3)n2)CCN(C(=O)CCC(F)(F)F)CC1", "no (0)"),
    ("N#CC[C@]1(n2cc(C(N)=O)c(NC(=O)C3CC3)n2)CC[C@@H](NCCC(F)(F)F)CC1", "no (0)"),
    ("N#CCC1(n2cc(C(N)=O)c(NC(=O)C3CC3)n2)CCN(Cc2cccc(Br)c2)CC1", "no (0)"),
    ("COC(=O)Nc1nn(C2(CC#N)CCN(CC(F)(F)F)CC2)cc1C(N)=O", "no (0)"),
    ("CS(=O)(=O)Nc1cc(CN2CCC(CC#N)(n3cc(C(N)=O)c(NC(=O)C4CC4)n3)CC2)ccc1F", "no (0)"),
    ("N#CCC1(n2cc(C(N)=O)c(NC(=O)C3CC3)n2)CCN(Cc2ccc(-c3ccc(Cl)s3)cc2)CC1", "no (0)"),
    ("CCc1ccc(C2(F)CN(C3CCC(CC#N)(n4cc(C(N)=O)c(NC(=O)C5CC5)n4)CC3)C2)cc1 (stereo not drawn)", "no (0)"),
    ("COC(=O)Nc1nn(C2(CC#N)CCN(Cc3ccc(-c4ccco4)cc3)CC2F)cc1C(N)=O (stereo not drawn)", "yes (1)"),
    ("N#CCC1(n2cc(C(N)=O)c(NC(=O)C3CC34CC4)n2)CCN(CC(F)(F)F)CC1 (stereo not drawn)", "no (0)"),
    ("CC(C)S(=O)(=O)Nc1cccc(CN2CCC(CC#N)(n3cc(C(N)=O)c(NC(=O)C4CC4)n3)CC2)c1", "no (0)"),
    ("N#CCC1(n2cc(C(N)=O)c(NC(=O)C3CC3)n2)CCN(Cc2ccc(C#N)cc2)CC1", "no (0)"),
    ("N#CC[C@]1(n2cc(C(N)=O)c(NC(=O)C3CC3)n2)CC[C@H](NCc2ccc(C#N)cc2)CC1", "no (0)"),
    ("CC(F)(F)C(=O)N1CCC(CC#N)(n2cc(C(N)=O)c(NC(=O)C3CC3)n2)CC1", "no (0)"),
    ("N#CC[C@]1(n2cc(C(N)=O)c(NC(=O)C3CC3)n2)CC[C@@H](NCc2ccccc2)CC1", "no (0)"),
]
